Value source: patent US10882856B2

system: IDO1 (Homo sapiens)
Sequence (P14902 whole entry): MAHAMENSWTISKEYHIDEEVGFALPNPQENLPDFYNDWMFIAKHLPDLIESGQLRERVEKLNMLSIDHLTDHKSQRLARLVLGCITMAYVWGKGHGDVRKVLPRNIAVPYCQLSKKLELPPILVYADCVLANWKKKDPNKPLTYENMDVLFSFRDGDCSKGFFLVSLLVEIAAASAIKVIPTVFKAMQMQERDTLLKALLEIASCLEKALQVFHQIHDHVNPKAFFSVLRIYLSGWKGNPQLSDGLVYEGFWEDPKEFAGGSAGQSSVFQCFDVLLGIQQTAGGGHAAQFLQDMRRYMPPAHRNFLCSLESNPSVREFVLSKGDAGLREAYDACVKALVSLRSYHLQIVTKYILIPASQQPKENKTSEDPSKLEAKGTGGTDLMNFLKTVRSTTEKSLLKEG
protocol_description: Hela cell-based IDO1 assay
conditions: Hela cells
pEC50 reference
Lab note: report pEC50 as minus log10 of the concentration in molar units, number only.

Please review the following examples before continuing.
COc1ccc([C@H]2CC[C@H]([C@H](O)c3c(C4CC4)ccc4cncn34)CC2)c(Cl)c1 (single isomer, unassigned) [Example D147a]    6.70
Oc1ccc([C@H]2CC[C@H](C(O)c3c(C4CC4)ccc4cncn34)CC2)cc1 (single isomer, unassigned) [Example D106a]    7.68
O[C@H](c1c(C2CC2)ccc2cncn12)C1CCN(c2ccc(Cl)cc2)CC1 (single isomer, unassigned) [Example D174a]    7.10

# get_value(readout= pEC50, system= IDO1 (Homo sapiens)) for NS(=O)(=O)Nc1ccc([C@H]2CC[C@H]([C@H](O)c3c(C4CC4)ccc4cncn34)CC2)cc1 [Example D165]
6.46

Request - read-out pEC50 | tested on IDO1 (Homo sapiens) | compound COc1cccc(C2CCC(C(O)c3c(C4CC4)ccn4cncc34)CC2)c1 (centres unmarked) [Example C114]
6.71
